# test.system: Dual specificity protein kinase CLK1 (Homo sapiens)
# Sequence (P49759 whole entry): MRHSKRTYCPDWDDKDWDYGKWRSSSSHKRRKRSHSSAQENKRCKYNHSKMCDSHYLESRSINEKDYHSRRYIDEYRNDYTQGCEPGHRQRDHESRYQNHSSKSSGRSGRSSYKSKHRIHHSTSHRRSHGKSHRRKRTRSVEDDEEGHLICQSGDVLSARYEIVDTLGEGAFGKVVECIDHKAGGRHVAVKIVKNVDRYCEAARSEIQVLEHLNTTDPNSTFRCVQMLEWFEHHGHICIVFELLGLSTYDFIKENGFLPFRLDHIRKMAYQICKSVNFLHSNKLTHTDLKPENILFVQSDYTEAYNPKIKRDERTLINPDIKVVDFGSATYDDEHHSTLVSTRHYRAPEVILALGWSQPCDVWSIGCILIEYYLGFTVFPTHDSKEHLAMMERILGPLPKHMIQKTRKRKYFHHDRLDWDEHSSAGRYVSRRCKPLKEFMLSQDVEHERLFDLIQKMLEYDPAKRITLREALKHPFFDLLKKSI
measure.name: pKd
Field pKd (float): negative decimal logarithm of the concentration in molar.

Inquiry: Fill in: pKd of CCOc1cc2ncc(C#N)c(Nc3ccc(F)c(Cl)c3)c2cc1NC(=O)/C=C/CN(C)C [PELITINIB] is ___
Reply text: 6.00

====

# test.system: Serine/threonine-protein kinase ULK3 (Mus musculus, UniProt Q3U3Q1)
# Sequence (Q3U3Q1 whole entry): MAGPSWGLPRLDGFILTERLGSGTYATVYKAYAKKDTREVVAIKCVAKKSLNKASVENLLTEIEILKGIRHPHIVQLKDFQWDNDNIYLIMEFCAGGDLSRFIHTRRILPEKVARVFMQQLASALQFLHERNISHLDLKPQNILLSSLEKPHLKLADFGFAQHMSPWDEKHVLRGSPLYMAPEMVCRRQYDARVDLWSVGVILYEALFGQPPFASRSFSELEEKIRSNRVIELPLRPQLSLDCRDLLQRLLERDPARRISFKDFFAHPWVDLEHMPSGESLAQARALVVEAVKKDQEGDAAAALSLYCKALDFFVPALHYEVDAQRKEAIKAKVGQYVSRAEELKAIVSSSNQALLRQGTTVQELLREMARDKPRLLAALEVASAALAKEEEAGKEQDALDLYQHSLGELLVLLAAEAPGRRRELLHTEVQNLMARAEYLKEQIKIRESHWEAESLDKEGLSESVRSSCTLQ
measure.name: Kd
Number first, unit second.

Inquiry: Which Kd value is on record for Oc1c2ccccc2c2c3c(cccc13)N=N2 [SP-600125] ?
Reply text: 680 nM

====

# test.system: Tyrosine-protein kinase Fer (Homo sapiens, UniProt P16591)
# Sequence (P16591 whole entry): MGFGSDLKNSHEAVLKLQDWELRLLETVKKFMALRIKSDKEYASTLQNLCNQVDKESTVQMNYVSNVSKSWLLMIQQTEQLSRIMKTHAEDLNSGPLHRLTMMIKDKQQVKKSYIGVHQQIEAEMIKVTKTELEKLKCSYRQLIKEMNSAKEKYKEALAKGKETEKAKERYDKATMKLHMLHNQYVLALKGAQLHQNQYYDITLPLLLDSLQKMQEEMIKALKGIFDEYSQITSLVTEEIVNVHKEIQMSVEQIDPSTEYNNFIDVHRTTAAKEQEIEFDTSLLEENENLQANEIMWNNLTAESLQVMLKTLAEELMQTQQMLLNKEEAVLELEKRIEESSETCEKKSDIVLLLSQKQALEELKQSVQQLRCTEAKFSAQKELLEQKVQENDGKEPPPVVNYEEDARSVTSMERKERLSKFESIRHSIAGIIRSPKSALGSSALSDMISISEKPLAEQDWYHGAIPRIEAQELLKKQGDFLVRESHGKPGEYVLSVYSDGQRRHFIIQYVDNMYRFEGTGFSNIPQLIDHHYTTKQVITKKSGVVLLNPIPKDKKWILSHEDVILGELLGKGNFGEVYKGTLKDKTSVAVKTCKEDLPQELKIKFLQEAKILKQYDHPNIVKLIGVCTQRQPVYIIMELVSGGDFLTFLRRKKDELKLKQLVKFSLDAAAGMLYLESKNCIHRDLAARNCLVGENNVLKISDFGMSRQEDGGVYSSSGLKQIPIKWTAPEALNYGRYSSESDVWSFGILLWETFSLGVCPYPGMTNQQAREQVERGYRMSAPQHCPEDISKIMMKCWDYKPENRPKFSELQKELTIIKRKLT
measure.name: pKd
Please note pKd is a logarithmic value: minus log10 of concentration in mol/L. Answer with that number alone.

Inquiry: Form field: reported pKd of `CCOc1cc2ncc(C#N)c(Nc3ccc(F)c(Cl)c3)c2cc1NC(=O)/C=C/CN(C)C`
Reply text: 6.60

Measured values drawn from ChEMBL document CHEMBL1144455 for this set.
